meta.source: BigSolDB 2.1

- Condition set: in ethyl acetate, 293.15 K
Measure: solubility (mole fraction)

- O=C(O)c1cc([N+](=O)[O-])cc([N+](=O)[O-])c1O: 0.0619

* * *

- Condition set: in cyclohexane, 308.15 K
Measure: solubility (mole fraction)

* O=C(O)c1cc([N+](=O)[O-])cc([N+](=O)[O-])c1O | 0.00836

* * *

- Condition set: in n-propanol, 303.15 K
Measure: solubility (mole fraction)

• O=C(O)c1cc([N+](=O)[O-])cc([N+](=O)[O-])c1O = 0.068

* * *

- Condition set: in water, 283.15 K
Measure: solubility (mole fraction)

* O=C(O)c1cc([N+](=O)[O-])cc([N+](=O)[O-])c1O | 0.000779
